Reference source: ChEMBL document CHEMBL3227978

# System: Mus musculus
# test.summary: Antidepressant activity in po dosed ICEM:CET (SPF Caw) mouse assessed as antagonism of reserpine-induced hypothermia administered via gavage 30 mins before reserpine challenge measured 4 hrs after reserpine treatment
# Assay type: functional
# run.parameters: Mus musculus, ICEM:CET(SPF Caw), po; read-out: ED50
measured.metric: ED50

[
  {
    "compound": "CNC1CN(C2CCCCc3ccccc32)C1 (stereo not given)",
    "measured.metric": "ED50",
    "result.value": "> 25 mg/kg"
  },
  {
    "compound": "CNCC1CN(C2c3ccccc3CCc3ccccc32)C1",
    "measured.metric": "ED50",
    "result.value": "> 25 mg/kg"
  },
  {
    "compound": "c1ccc2c(c1)CCc1ccccc1C2N1CC(NC2CCCCC2)C1",
    "measured.metric": "ED50",
    "result.value": "> 25 mg/kg"
  }
]

Could I get ED50 for every one of these entries?
1. CNC1(c2ccccc2)CN(C2c3ccccc3CCc3ccccc32)C1
2. CNC1CN(C(c2ccccc2)c2ccccc2)C1

output:
1: > 25 mg/kg; 2: > 25 mg/kg

====

# test.summary: Orientative acute toxicity in po dosed ICEM:CET (SPF Caw) mouse administered via gavage measured for 60 mins after drug dosing by Irwin's test
# Format: organism-based
# run.parameters: ICEM:CET (SPF Caw), in vivo
Give LD50 at 1 h for every item shown.

Previously resolved entries follow.
[
  {
    "compound": "CNC1(c2ccccc2)CN(C2c3ccccc3CCc3ccccc32)C1",
    "LD50 at 1 h": "> 400 mg/kg"
  },
  {
    "compound": "NC1CN(C2c3ccccc3CCc3ccccc32)C1",
    "LD50 at 1 h": "200 mg/kg"
  }
]

For the next question, use this compound.
input: Value lookup for LD50 at 1 h; key = CNC1CN(C2c3ccccc3COc3ccc(Cl)cc32)C1 (stereo not drawn)
output: 100 mg/kg

====

Give log10 of ED50 for every item shown.
# System: Mus musculus
# test.summary: Antidepressant activity in po dosed ICEM:CET (SPF Caw) mouse assessed as antagonism of reserpine-induced blepharospasm administered via gavage 30 mins before reserpine challenge measured 1 hr after reserpine treatment
# Format: functional
# run.parameters: Mus musculus, ICEM:CET(SPF Caw), po; read-out: ED50
Recall that a logarithmic scale is used here: each number is log10 of ED50 in mg/kg.

[
  {
    "molecule": "C#CC(C)(C)NC1CN(C2c3ccccc3CCc3ccccc32)C1",
    "measured.metric": "log10 of ED50",
    "result.value": 0.95
  },
  {
    "molecule": "CN(C)CCC=C1c2ccccc2CCc2ccccc21.Cl [AMITRIPTYLINE HYDROCHLORIDE]",
    "measured.metric": "log10 of ED50",
    "result.value": 0.11
  },
  {
    "molecule": "NC1CN(C2c3ccccc3CCc3ccccc32)C1",
    "measured.metric": "log10 of ED50",
    "result.value": 0.70
  },
  {
    "molecule": "CNC1CN(C(c2ccccc2)c2ccccc2)C1",
    "measured.metric": "log10 of ED50",
    "result.value": 0.54
  },
  {
    "molecule": "CN(CC(=O)c1ccccc1)C1CN(C2c3ccccc3CCc3ccccc32)C1",
    "measured.metric": "log10 of ED50",
    "result.value": 1.18
  }
]

Could I get log10 of ED50 for every one of these entries?
1. CC(C)NC1CN(C2c3ccccc3COc3ccccc32)C1 (stereo not given)
2. CCNC1CN(C2c3ccccc3COc3ccccc32)C1 (stereo not given)
3. CNC1CN(C2c3ccccc3CCc3ccc(OC)cc32)C1 (stereo not given)
4. c1ccc(CNC2CN(C3c4ccccc4CCc4ccccc43)C2)cc1
5. CNC1CN(C2c3ccccc3CCc3ccccc32)C1

output:
[0.59, 0.68, 1.15, 1.08, 0.46]
